Where do these numbers come from? They come from patent US10618903B2.

Endpoint: pIC50. System: IRAK4 (Homo sapiens (Human)). Items follow.
Sequence (Q9NWZ3 whole entry): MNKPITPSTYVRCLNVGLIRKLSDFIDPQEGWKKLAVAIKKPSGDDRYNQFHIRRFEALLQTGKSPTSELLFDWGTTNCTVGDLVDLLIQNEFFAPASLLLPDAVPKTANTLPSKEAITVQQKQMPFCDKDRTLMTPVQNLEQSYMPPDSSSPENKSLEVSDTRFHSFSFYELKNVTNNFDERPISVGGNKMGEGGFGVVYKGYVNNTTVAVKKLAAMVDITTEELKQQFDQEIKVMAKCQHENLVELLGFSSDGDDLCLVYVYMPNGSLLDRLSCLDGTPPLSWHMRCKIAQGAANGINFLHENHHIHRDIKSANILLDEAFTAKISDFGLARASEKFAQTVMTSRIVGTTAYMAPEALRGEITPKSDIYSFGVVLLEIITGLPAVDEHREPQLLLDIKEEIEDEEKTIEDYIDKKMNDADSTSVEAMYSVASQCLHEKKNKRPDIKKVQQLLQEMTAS
Reminder that pIC50 is minus the log10 of a molar concentration.

Here's what some known entries look like.
C[C@@H](CO)Nc1cc(-c2cnc3cccnn23)ncc1C(=O)NC[C@@H](F)C(C)(C)O : 7.72
CO[C@H]1CC[C@H](Nc2cc(-c3cnc4cc(C#N)cnn34)ncc2C(=O)NC[C@@H](F)C(C)(C)O)CC1 : 8.22
CC(C)Nc1cc(-c2cnn3cc(Cl)cnc23)ncc1C(=O)NCC(F)C(O)(CO)CO (stereo not drawn) : 7.62
CC(C)(O)[C@H](F)CNC(=O)c1cnc(-c2cnn3cc(C#N)cnc23)cc1NCC1(O)CCCOC1 (single isomer, unassigned) [Example 122] : 7.52
CNC(=O)[C@H]1CC[C@H](NC(=O)c2cnc(-c3cnn4cc(C#N)cnc34)cc2NC(C)C)CC1 : 7.47

query: Form field - read-out: pIC50; system: IRAK4 (Homo sapiens (Human)); submitted item: CC[C@H](F)CNc1cc(-c2cnn3cc(Cl)cnc23)ncc1C(=O)NC[C@@H](F)C(C)(C)O
result: 8.30

query: Form field - read-out: pIC50; system: IRAK4 (Homo sapiens (Human)); submitted item: CC(C)(O)[C@H](F)CNC(=O)c1cnc(-c2cnn3cc(C#N)cnc23)cc1Nc1cnn(C2CC2)c1
result: 8.70

query: Form field - read-out: pIC50; system: IRAK4 (Homo sapiens (Human)); submitted item: CC(C)(O)[C@H](F)CNC(=O)c1cnc(-c2cnn3cc(C#N)cnc23)cc1NC1CC1
result: 7.70

query: Form field - read-out: pIC50; system: IRAK4 (Homo sapiens (Human)); submitted item: CC(C)(O)[C@H](F)CNC(=O)c1cnc(-c2cnn3cc(C#N)cnc23)cc1N[C@H]1COC[C@@H]1F (single isomer, unassigned) [Example 116]
result: 7.68
